Every entry's value here was drawn from paper PMC9298613.

method: Pharmacokinetics of APZ in rat plasma
Assay type: in vivo, Wistar rats
experimental context: Wistar, rat, plasma, po, 3 mg/kg
observable: k el (s⁻¹)

O=C1CCc2ccc(OCCCCN3CCN(c4cccc(Cl)c4Cl)CC3)cc2N1 [APZ] : 1.11e-05

----------
method: Pharmacokinetics of APZ in rat plasma
Format: in vivo, Wistar rats
experimental context: Wistar, rat, plasma, po, 3 mg/kg, T1/2, APZ 3 mg/kg p.o. daily for 15 days (multiple doses); with or without SA 20 mg/kg p.o. for 15 days; mean ± SD, n = 6
observable: half-life (h)

O=C1CCc2ccc(OCCCCN3CCN(c4cccc(Cl)c4Cl)CC3)cc2N1 : 19.8
